Data origin: ChEMBL document CHEMBL4017441

- Tested target: Bile salt export pump (Rattus norvegicus)
- Sequence (O70127 whole entry): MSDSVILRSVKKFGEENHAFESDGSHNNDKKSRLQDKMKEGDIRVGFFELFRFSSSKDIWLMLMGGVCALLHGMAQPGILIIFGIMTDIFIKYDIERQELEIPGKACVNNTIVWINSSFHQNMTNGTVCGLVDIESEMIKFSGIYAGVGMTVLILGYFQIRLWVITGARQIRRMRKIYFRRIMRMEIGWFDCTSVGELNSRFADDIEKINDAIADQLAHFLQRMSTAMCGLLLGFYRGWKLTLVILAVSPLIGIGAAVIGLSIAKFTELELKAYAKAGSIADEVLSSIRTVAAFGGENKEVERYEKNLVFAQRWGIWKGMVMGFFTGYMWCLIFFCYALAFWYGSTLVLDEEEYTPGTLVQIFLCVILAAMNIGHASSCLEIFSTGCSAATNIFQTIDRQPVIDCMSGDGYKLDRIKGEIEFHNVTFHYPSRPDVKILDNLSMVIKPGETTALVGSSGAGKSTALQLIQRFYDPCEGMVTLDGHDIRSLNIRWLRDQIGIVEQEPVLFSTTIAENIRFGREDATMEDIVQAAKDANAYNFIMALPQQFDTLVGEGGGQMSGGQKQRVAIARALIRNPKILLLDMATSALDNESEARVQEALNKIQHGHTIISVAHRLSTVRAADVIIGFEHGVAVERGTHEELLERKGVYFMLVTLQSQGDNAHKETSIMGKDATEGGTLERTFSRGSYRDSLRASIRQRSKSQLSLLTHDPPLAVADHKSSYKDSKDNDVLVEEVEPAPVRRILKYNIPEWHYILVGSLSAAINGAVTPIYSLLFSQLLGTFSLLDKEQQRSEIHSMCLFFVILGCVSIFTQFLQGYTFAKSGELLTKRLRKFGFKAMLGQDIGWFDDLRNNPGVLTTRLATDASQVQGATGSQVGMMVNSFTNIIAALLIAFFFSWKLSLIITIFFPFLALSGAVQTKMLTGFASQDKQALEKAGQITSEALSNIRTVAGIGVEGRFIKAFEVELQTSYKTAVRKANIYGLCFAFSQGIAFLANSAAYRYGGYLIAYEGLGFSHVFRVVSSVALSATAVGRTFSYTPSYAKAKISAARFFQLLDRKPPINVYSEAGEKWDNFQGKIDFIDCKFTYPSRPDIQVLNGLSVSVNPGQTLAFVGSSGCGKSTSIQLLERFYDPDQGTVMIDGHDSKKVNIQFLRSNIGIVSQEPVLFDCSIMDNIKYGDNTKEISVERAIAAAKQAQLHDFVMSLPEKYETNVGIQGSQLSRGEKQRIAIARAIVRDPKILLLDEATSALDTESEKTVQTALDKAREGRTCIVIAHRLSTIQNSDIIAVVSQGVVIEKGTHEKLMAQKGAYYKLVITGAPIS
- Measurement protocol: Inhibition of BSEP in Sprague-Dawley rat canalicular membrane vesicles assessed as reduction in ATP-dependent [3H]-taurocholate uptake
pKi: −log10 of the molar value.

>  <Molecule>
COc1ccc(CCN(C)CCCC(C#N)(c2ccc(OC)c(OC)c2)C(C)C)cc1OC (stereo unspecified)

>  <pKi>
4.03

$$$$

###

Here's what we have: IC50 numbers for Bile salt export pump (Homo sapiens).

>  <Molecule>
O=C1C(O)=C(O)C(=O)C(O)=C1O [TETROQUINONE]

>  <Value qualifier>
>

>  <IC50 / µM>
1000

$$$$
>  <Molecule>
Cc1ccc(CCCN[C@H](C)CO)cc1C(=O)NCC12CC3CC(CC(C3)C1)C2

>  <Value qualifier>
=

>  <IC50 / µM>
65.6

$$$$
>  <Molecule>
Cc1cc(CCC(=O)O)cc(C)c1-c1nc2ccc(-c3nnc(Nc4cccc(Cl)c4)o3)cc2[nH]1

>  <Value qualifier>
<

>  <IC50 / µM>
10

$$$$
>  <Molecule>
CC(=O)Nc1ccccc1OC[C@@](C)(O)CNC1CCN(Cc2ccc(Cl)cc2)CC1

>  <Value qualifier>
=

>  <IC50 / µM>
71.5

$$$$
>  <Molecule>
Clc1ccc(COC(Cn2ccnc2)c2ccc(Cl)cc2Cl)cc1 (centres undefined) [ECONAZOLE]

>  <Value qualifier>
<

>  <IC50 / µM>
10

$$$$
>  <Molecule>
O=C(O)CCCCCCCNC(=O)c1ccccc1O [SALCAPROZIC ACID]

>  <Value qualifier>
>

>  <IC50 / µM>
751

$$$$
>  <Molecule>
CCN1CCN(C(=O)N[C@@H](C(=O)N[C@@H]2C(=O)N3[C@@H]2SC(C)(C)[C@@H]3C(=O)O)c2ccccc2)C(=O)C1=O [PIPERACILLIN]

>  <Value qualifier>
=

>  <IC50 / µM>
197

$$$$
>  <Molecule>
Fc1ccc(C(c2ccc(F)cc2)N2CCN(C/C=C/c3ccccc3)CC2)cc1 [FLUNARIZINE]

>  <Value qualifier>
<

>  <IC50 / µM>
10

$$$$
>  <Molecule>
CCC(=N\O)/C(C)=C/c1ccc(F)cc1 [A-079]

>  <Value qualifier>
=

>  <IC50 / µM>
26.8

$$$$

###

- Tested target: Bile salt export pump (Homo sapiens, UniProt O95342)
- Sequence (O95342 whole entry): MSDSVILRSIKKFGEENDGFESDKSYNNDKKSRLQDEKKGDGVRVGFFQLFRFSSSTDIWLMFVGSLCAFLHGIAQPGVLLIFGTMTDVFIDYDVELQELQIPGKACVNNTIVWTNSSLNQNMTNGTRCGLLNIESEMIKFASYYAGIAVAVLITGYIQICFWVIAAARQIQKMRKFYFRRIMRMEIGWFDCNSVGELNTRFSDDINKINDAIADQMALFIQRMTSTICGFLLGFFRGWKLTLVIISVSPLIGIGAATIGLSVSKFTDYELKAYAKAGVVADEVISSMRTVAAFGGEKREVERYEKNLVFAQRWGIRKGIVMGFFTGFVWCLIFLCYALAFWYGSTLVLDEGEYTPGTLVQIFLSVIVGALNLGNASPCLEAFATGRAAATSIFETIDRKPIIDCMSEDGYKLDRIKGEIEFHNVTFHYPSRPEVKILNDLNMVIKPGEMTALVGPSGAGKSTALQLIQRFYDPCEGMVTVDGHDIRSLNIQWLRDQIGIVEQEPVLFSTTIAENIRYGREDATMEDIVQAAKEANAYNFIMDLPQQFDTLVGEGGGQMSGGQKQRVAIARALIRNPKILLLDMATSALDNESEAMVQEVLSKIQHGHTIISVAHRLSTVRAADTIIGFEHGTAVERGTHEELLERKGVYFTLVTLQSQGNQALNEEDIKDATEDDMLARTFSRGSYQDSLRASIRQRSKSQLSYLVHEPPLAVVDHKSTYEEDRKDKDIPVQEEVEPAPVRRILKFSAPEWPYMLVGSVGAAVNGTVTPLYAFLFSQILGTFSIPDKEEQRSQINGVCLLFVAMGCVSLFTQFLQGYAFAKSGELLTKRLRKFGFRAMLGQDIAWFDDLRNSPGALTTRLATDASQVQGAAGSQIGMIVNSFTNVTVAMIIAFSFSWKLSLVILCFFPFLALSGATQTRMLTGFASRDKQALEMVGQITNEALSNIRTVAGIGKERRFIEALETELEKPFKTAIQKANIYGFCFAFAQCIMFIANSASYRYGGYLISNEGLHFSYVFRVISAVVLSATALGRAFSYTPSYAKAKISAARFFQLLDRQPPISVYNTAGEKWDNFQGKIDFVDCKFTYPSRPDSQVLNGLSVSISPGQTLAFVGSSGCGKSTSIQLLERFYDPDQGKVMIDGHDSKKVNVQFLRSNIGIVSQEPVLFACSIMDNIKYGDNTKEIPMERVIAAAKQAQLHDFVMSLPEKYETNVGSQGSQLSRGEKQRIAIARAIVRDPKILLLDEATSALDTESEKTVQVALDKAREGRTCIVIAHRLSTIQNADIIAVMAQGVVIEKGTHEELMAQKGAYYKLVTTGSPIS
pIC50: −log10 of the molar value.

>  <Molecule>
CC(=O)NCCCCCCNC(C)=O [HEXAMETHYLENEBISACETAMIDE]

>  <Value qualifier>
<

>  <pIC50>
3.00

$$$$
>  <Molecule>
CN1CCN(C2=Nc3cc(Cl)ccc3Nc3ccccc32)CC1

>  <Value qualifier>
=

>  <pIC50>
4.12

$$$$
>  <Molecule>
CNC(=O)Oc1ccc2c(c1)C1(C)CCN(C)C1N2C (stereo not given)

>  <Value qualifier>
<

>  <pIC50>
3.00

$$$$
>  <Molecule>
O=c1c2ccccc2[se]n1-c1ccccc1

>  <Value qualifier>
>

>  <pIC50>
5.00

$$$$
>  <Molecule>
OCCN1CCN(CCCN2c3ccccc3Sc3ccc(C(F)(F)F)cc32)CC1

>  <Value qualifier>
=

>  <pIC50>
4.59

$$$$

###

Here's what we have: pIC50 numbers for UniProt O95342.
pIC50: −log10 of the molar value.

>  <Compound>
CCC1=C(C)CN(C(=O)NCCc2ccc(S(=O)(=O)NC(=O)N[C@H]3CC[C@H](C)CC3)cc2)C1=O [GLIMEPIRIDE]

>  <pIC50>
> 5.00

$$$$
>  <Compound>
O=CN(O)C(CCc1ccccc1)CS(=O)(=O)N1CCN(c2ccc(Cl)cn2)CC1 (centres undefined)

>  <pIC50>
> 5.00

$$$$
>  <Compound>
COc1cc(CNC(=O)CCCC/C=C/C(C)C)ccc1O

>  <pIC50>
> 5.00

$$$$
>  <Compound>
C=C[C@H]1C[N@@]2CC[C@H]1C[C@H]2[C@H](O)c1ccnc2ccc(OC)cc12

>  <pIC50>
4.01

$$$$
>  <Compound>
Oc1c(I)cc(I)c2cccnc12

>  <pIC50>
< 3.00

$$$$
>  <Compound>
CC(c1cc2ccccc2s1)N(O)C(N)=O (centres undefined)

>  <pIC50>
< 3.12

$$$$
>  <Compound>
CCCC(=O)c1cnc2c(OCC[S+](C)[O-])cccc2c1Nc1ccc(F)cc1C (centres undefined)

>  <pIC50>
> 5.00

$$$$
>  <Compound>
CCCCCCCCCCCCc1ccc(S(=O)(=O)Nc2nncs2)cc1

>  <pIC50>
4.68

$$$$
>  <Compound>
Cc1ccnc(NS(=O)(=O)c2ccc(N)cc2)n1

>  <pIC50>
< 3.00

$$$$
>  <Compound>
COC(=O)C1=C(C)NC(C)=C(C(=O)OC(C)C)[C@@H]1c1cccc2nonc12 [(R)-ISRADIPINE]

>  <pIC50>
> 5.00

$$$$
>  <Compound>
C1CCc2nnnn2CC1

>  <pIC50>
< 3.00

$$$$
>  <Compound>
CN1C(=O)[C@@H](NC(=O)c2cc3ccccc3[nH]2)N=C(c2ccccc2)c2ccccc21 [DEVAZEPIDE]

>  <pIC50>
> 5.00

$$$$
>  <Compound>
NC(CO)C(=O)NNCc1ccc(O)c(O)c1O (centres undefined) [BENSERAZIDE]

>  <pIC50>
3.93

$$$$
>  <Compound>
CC[C@@H](Nc1c(Nc2cccc(C(=O)N(C)C)c2O)c(=O)c1=O)c1ccc(C)o1 [NAVARIXIN ANHYDROUS]

>  <pIC50>
> 5.00

$$$$
>  <Compound>
NC(=O)c1ccccc1O [SALICYLAMIDE]

>  <pIC50>
< 3.00

$$$$
>  <Compound>
CN(Cc1cc(Br)cc(Br)c1N)C1CCCCC1

>  <pIC50>
4.69

$$$$
>  <Compound>
O=C1OC(OC(=O)c2cccnc2Nc2cccc(C(F)(F)F)c2)c2ccccc21 (centres undefined) [TALNIFLUMATE]

>  <pIC50>
< 3.00

$$$$
>  <Compound>
CN1CCN(c2ccccc2/C=C2/SCCN(c3ccc(Cl)c(Cl)c3)C2=O)CC1

>  <pIC50>
> 5.00

$$$$
>  <Compound>
CO[C@H]1/C=C/O[C@@]2(C)Oc3c(C)c(O)c4c(O)c(c(/C=N/N5CCN(C)CC5)c(O)c4c3C2=O)NC(=O)/C(C)=C\C=C\[C@H](C)[C@H](O)[C@@H](C)[C@@H](O)[C@H](C)[C@H](OC(C)=O)[C@H]1C

>  <pIC50>
> 5.00

$$$$

###

Here's what we have: IC50 numbers for Bile salt export pump (Homo sapiens).

>  <Compound>
CCC[S+]([O-])CCCN(CC)CC(O)COc1ccc(C#N)cc1 (stereo not given)

>  <Value qualifier>
=

>  <IC50 (µM)>
55.7

$$$$
>  <Compound>
O=C(O)c1cc2c(F)c(O)ccc2n1Cc1ccc(Cl)c(Cl)c1

>  <Value qualifier>
=

>  <IC50 (µM)>
19.3

$$$$
>  <Compound>
NS(=O)(=O)c1cc2c(cc1Cl)N=C(CSCc1ccccc1)NS2(=O)=O [BENZTHIAZIDE]

>  <Value qualifier>
=

>  <IC50 (µM)>
57.4

$$$$
>  <Compound>
c1ccc2[nH]c(-c3cscn3)nc2c1

>  <Value qualifier>
=

>  <IC50 (µM)>
560

$$$$
>  <Compound>
CN(C)C(=O)Oc1cccc([N+](C)(C)C)c1

>  <Value qualifier>
>

>  <IC50 (µM)>
1000

$$$$

###

Here's what we have: IC50 numbers for Bile salt export pump (Homo sapiens).

>  <Compound>
CCCc1c(OCCCOc2ccc3c(=O)cc(CCC(=O)O)oc3c2CCC)ccc(C(C)=O)c1O

>  <Tested target>
Bile salt export pump (Homo sapiens)

>  <IC50>
< 10 µM

$$$$
>  <Compound>
CC(=O)Nc1c(I)c(C(=O)N[C@H]2C(O)O[C@H](CO)[C@@H](O)[C@@H]2O)c(I)c(N(C)C(C)=O)c1I (stereo not given in full) [METRIZAMIDE]

>  <Tested target>
Bile salt export pump (Homo sapiens)

>  <IC50>
> 1000 µM

$$$$
>  <Compound>
CCCCc1ccc2[nH]c(NC(=O)OC)nc2c1 [PARBENDAZOLE]

>  <Tested target>
Bile salt export pump (Homo sapiens)

>  <IC50>
> 1000 µM

$$$$
>  <Compound>
Cc1cc2cc3c(C)cc(=O)oc3c(C)c2o1 [TRIOXSALEN]

>  <Tested target>
Bile salt export pump (Homo sapiens)

>  <IC50>
> 525 µM

$$$$
>  <Compound>
C[N+](C)(C)CC(O)CC(=O)[O-] (stereo not given) [CARNITINE]

>  <Tested target>
Bile salt export pump (Homo sapiens)

>  <IC50>
> 1000 µM

$$$$
